These data points were gathered from ChEMBL document CHEMBL1142956.

# Experimental system: RmtA (Emericella nidulans, UniProt Q5VLE3)
# Sequence (Q5VLE3 whole entry): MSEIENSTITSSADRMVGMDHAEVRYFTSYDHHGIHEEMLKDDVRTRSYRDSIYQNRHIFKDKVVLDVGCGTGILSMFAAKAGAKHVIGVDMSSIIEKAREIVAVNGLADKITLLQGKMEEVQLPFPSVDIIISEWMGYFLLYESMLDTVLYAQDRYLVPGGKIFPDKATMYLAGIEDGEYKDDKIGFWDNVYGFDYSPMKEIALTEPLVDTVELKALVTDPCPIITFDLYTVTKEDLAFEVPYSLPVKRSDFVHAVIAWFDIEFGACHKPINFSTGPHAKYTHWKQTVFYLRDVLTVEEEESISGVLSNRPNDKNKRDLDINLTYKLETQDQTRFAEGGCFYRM
# Assay comment: Inhibition of Aspergillus nidulans recombinant GST-RmtA expressed in BL21 cells
Endpoint label: pIC50
Formally, pIC50 is defined as -log10 of the concentration c, with c in mol/L.

>  <Smiles text>
Nc1ccc(C(=O)O)c(-c2c3ccc(=O)cc-3oc3cc(O)ccc23)c1

>  <pIC50>
3.15

$$$$

## Task Return reported pIC50; argument: O=c1cc2oc3cc(O)c(O)cc3c(-c3ccccc3)c-2cc1O
## Result 3.80

## Task Next up: O=C(Nc1ccc2c(O)cc(S(=O)(=O)O)cc2c1)Nc1ccc2c(O)cc(S(=O)(=O)O)cc2c1
## Result 4.06

## Task Next up: CN(C)c1ccc(/N=N/c2ccc(S(=O)(=O)O)cc2)cc1
## Result 3.31

## Task Next up: O=C1c2ccccc2C(=O)c2c1ccc(O)c2O
## Result 2.91

## Task Next up: O=C(O)c1ccccc1-c1c2cc(Br)c(=O)c(Br)c-2oc2c(Br)c(O)c(Br)cc12
## Result 6.74

## Task Next up: Nc1c(Br)cc(C(=O)O)c(-c2c3cc(Br)c(=O)c(Br)c-3oc3c(Br)c(O)c(Br)cc23)c1Br
## Result 4.65
